Reference source for all entries: patent US20240246968A1

- STUDY_SYSTEM: interaction between recombinant K-Ras4B G12C mutant protein and cRAF RAS-binding domain (cRAF-RBD) (Homo sapiens, UniProt P01116, G12C)
- Sequence (P01116 with tags, fused parts or gaps isoform P01116-2 G12C): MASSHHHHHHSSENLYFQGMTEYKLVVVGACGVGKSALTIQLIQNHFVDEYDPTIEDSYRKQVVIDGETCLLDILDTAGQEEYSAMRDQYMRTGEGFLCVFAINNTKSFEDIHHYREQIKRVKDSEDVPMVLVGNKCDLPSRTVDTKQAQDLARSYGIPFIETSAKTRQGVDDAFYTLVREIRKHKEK
- ASSAY_METHOD_TEXT: Inhibitory activity on interaction between KRAS G12C and cRAF (Alpha technology)
- ASSAY_SETUP: GMPPNP-bound KRAS G12C incubated with compound at 25° C. for 1 hour, then cRAF-RBD; Alpha signal
- Description: Interaction between recombinant K-Ras4B G12C mutant protein (amino acids 1-169, SEQ ID NO:2) and cRAF RAS-binding domain (cRAF-RBD, amino acids 50-132, Jena Biosciences GmbH) was measured using Alpha technology (PerkinElmer Inc.). Recombinant KRAS G12C protein with an N-terminal His-tag was expressed in E. coli and purified by affinity chromatography. To prepare GTP-bound form and GDP-bound form of KRAS G12C protein. […]
API: label(entry) gives yes if the entry's IC50 is strictly smaller than 80 nM; on equality or larger values it gives no.

molecule="COc1cc2c(nc(C)n2C)c(F)c1-c1cccn2c(C(=O)c3cc(F)c(NC(=O)/C=C/CNC(C)(C)C)c(F)c3)ccc12 [Example 46]" answer_label=yes
molecule="CO[C@H]1CC[C@H](NC/C=C/C(=O)Nc2c(F)cc(C(=O)c3ccc4c(-c5c(C)cc6c(nc(C)n6C)c5Cl)cccn34)cc2F)CC1 (single isomer, unassigned) [Example 19-1]" answer_label=yes
molecule="CO[C@H]1CC[C@H](NC/C=C/C(=O)Nc2c(F)cc(C(=O)c3ccc4c(-c5c(C)cc6c(ncn6C)c5Cl)cccn34)cc2F)CC1 (single isomer, unassigned) [Example 12-2]" answer_label=no
molecule="CC(C)(C)NC/C=C/C(=O)Nc1c(F)cc(C(=O)c2cnc3c(-c4cc5nc6n(c5cc4C(F)(F)F)CCC6)cccn23)cc1F [Example 7]" answer_label=yes
molecule="COc1cc(N2CCCC2=O)cc(Cl)c1-c1cccn2c(C(=O)c3cc(F)c(NC(=O)/C=C/CN[C@H]4CC[C@H](OC)CC4)c(F)c3)ccc12 (single isomer, unassigned) [Example 30-1]" answer_label=no
molecule="Cc1nc2cc(-c3cccn4c(C(=O)c5cc(F)c(NC(=O)/C=C/CN[C@@H]6CCC[C@H](F)C6)c(F)c5)ccc34)c(C(F)(F)F)cc2n1C (racemic) [Example 94]" answer_label=no
molecule="CO[C@H]1CC[C@H](NC/C=C/C(=O)Nc2c(F)cc(C(=O)c3c(C)nc4c(-c5cc6nc(C)n(C)c6cc5C(F)(F)F)cccn34)cc2F)CC1 [Example 51]" answer_label=yes
molecule="CO[C@H]1CC[C@H](NC/C=C/C(=O)Nc2c(F)cc(C(=O)c3ccc4c(-c5c(C(F)(F)F)cc6c(nc(CO)n6C)c5Cl)cccn34)cc2F)CC1 [Example 67]" answer_label=yes
molecule="C=Cc1cc(C(=O)c2cc(F)c(NC(=O)/C=C/CN[C@H]3CC[C@H](OC)CC3)c(F)c2)n2cccc(-c3c(C)cc4c(nc(C)n4C)c3Cl)c12 [Example 88]" answer_label=yes
molecule="COc1c(-c2cccn3c(C(=O)c4cc(F)c(NC(=O)/C=C/CN[C@H]5CC[C@H](OC)CC5)c(F)c4)cnc23)c(C(F)(F)F)cc2c1nc(C)n2C (single isomer, unassigned) [Example 83-2]" answer_label=no
molecule="CCc1cc2c(ncn2C)c(Cl)c1-c1cccn2c(C(=O)c3cc(F)c(NC(=O)/C=C/CN[C@H]4CC[C@H](OC)CC4)c(F)c3)ccc12 [Example 10]" answer_label=yes
molecule="Cc1nc2cc(-c3cccn4c(C(=O)c5cc(F)c(NC(=O)/C=C/CNC6CCOC6)c(F)c5)ccc34)c(C(F)(F)F)cc2n1C (stereo not drawn) [Example 77]" answer_label=yes
molecule="Cc1nc2c(Cl)c(-c3cccn4c(C(=O)c5cc(F)c(NC(=O)/C=C/CNC(C)(C)C)c(F)c5)ccc34)c(C(F)(F)F)cc2n1C (single isomer, unassigned) [Example 56-1]" answer_label=no
molecule="CO[C@H]1CC[C@H](NC/C=C/C(=O)Nc2c(F)cc(C(=O)c3ccc4c(-c5c(C(F)(F)F)cc6c(ncn6C)c5Cl)cccn34)cc2F)CC1 (single isomer, unassigned) [Example 28-1]" answer_label=yes
molecule="CO[C@H]1CC[C@H](NC/C=C/C(=O)Nc2c(F)cc(C(=O)c3cnc4c(-c5cc6nc7n(c6cc5C(F)(F)F)CCC7)cccn34)cc2F)CC1 [Example 6]" answer_label=yes
molecule="Cc1nc2cc(-c3cccn4c(C(=O)c5cc(F)c(NC(=O)/C=C/CNC6(CO)CCCCC6)c(F)c5)ccc34)c(C(F)(F)F)cc2n1C [Example 69]" answer_label=no
molecule="Cn1cnc2c(Cl)c(-c3cccn4c(C(=O)c5cc(F)c(NC(=O)/C=C/CNC(C)(C)C)c(F)c5)ccc34)c(Cl)cc21 (single isomer, unassigned) [Example 20-2]" answer_label=yes
molecule="Cc1nc2c(Cl)c(-c3cccn4c(C(=O)c5cc(F)c(NC(=O)/C=C/CNC6CCOCC6)c(F)c5)ccc34)c(C(F)(F)F)cc2n1C (single isomer, unassigned) [Example 57-2]" answer_label=no
molecule="Cc1nc2cc(-c3cccn4c(C(=O)c5cc(F)c(NC(=O)/C=C/CNC6CC7CCC(C6)O7)c(F)c5)ccc34)c(C(F)(F)F)cc2n1C (stereo not drawn) [Example 79]" answer_label=yes
molecule="COc1cc2c(nc(C)n2C)c(Cl)c1-c1cccn2c(C(=O)c3cc(F)c(NC(=O)/C=C/CNC(C)(C)C)c(F)c3)ccc12 (single isomer, unassigned) [Example 36-2]" answer_label=yes
